tested on: IGROV-1; assay: Inhibition of cells growth by colorimetric assay (SRB); conditions: Homo sapiens, IGROV-1, 48 h, read-out: GI50 IGROV
Quick list: GI50 per entry.
Lab book: enter the figure in nM, no units written.

COC1=C(C)C(=O)C2=C(C1=O)[C@@H]1C3[C@@H]4SC[C@]5(NCCc6c5[nH]c5ccccc65)C(=O)OC[C@@H](c5c6c(c(C)c(OC(C)=O)c54)OCO6)N3[C@@H](C#N)[C@H](C2)N1C (stereo partly drawn); 350
C=CCN1[C@@H]2c3c(cc(C)c(OC)c3O)C[C@H]1[C@H](C#N)N1C2[C@@H]2SCC(NC(=O)CCCCCCCCCCCCCCC)C(=O)OC[C@H]1c1c3c(c(C)c(OC(C)=O)c12)OCO3 (stereo partly drawn); 6840

Given C=CCN1[C@@H]2c3c(cc(C)c(OC)c3O)C[C@H]1[C@H](C#N)N1C2[C@@H]2SC[C@H](NC(=O)c3cc4ccccc4oc3=O)C(=O)OC[C@H]1c1c3c(c(C)c(OC(C)=O)c12)OCO3 (stereo partly drawn) , state its recorded GI50.
49

----------
test system: HeLa-APL; assay: Inhibition of cells growth by colorimetric assay (SRB); conditions: Homo sapiens, 48 h, read-out: HELA-APL TGI
Rule: IC (TGI) below 10 nM gives true. Equal to or above 10 nM gives false.

Some entries whose results are on file:
COc1cc2c(cc1O)CCN[C@]21CS[C@@H]2c3c(OC(=O)/C=C/c4ccccc4)c(C)c4c(c3[C@H](COC1=O)N1C2[C@@H]2N[C@@H](Cc3cc(C)c(OC)c(O)c32)[C@@H]1O)OCO4 (some centres unmarked); false
C=CCN1[C@@H]2c3c(cc(C)c(OC)c3O)C[C@H]1[C@H](C#N)N1C2[C@@H]2SC[C@]3(NCCc4c3[nH]c3ccccc43)C(=O)OC[C@H]1c1c3c(c(C)c(OC(C)=O)c12)OCO3 (some centres unmarked); false
COc1ccc2[nH]c3c(c2c1)CCN[C@]31CS[C@@H]2c3c(OC(C)=O)c(C)c4c(c3[C@H](COC1=O)N1C2[C@@H]2N[C@@H](Cc3cc(C)c(OC)c(O)c32)[C@@H]1C#N)OCO4 (some centres unmarked); true
COc1cc2c(cc1O)CCN[C@]21CS[C@@H]2c3c(OC(C)=O)c(C)c4c(c3[C@H](COC1=O)N1C2C2c3c(cc(C)c(OC)c3O)C[C@@H]([C@@H]1C#N)N2C)OCO4 (some centres unmarked); true

// next entry
hey, is IC (TGI) for COc1c(C)cc2c(c1O)[C@H]1N[C@@H](C2)[C@H](O)N2C1[C@@H]1SC[C@]3(NCCc4c3[nH]c3ccc(C)cc43)C(=O)OC[C@H]2c2c3c(c(C)c(OC(C)=O)c21)OCO3 (some centres unmarked) lower than 10 nM or not?
true

----------
tested on: SK-BR-3; test: Inhibition of cells growth by colorimetric assay (SRB); conditions: read-out: SK-BR3 LC50; SRB assay, 48 hours exposure, SK-BR3, cell killing
Assay metric: CC50 (µM)
Just the number please, in µM, no unit attached.

Entry under review: COc1c(C)cc2c(c1O)C1C3C4SCC(NC(C)=O)C(=O)OCC(c5c6c(c(C)c(OC(C)=O)c54)OCO6)N3C(C#N)C(C2)N1C(C)=O (stereo not shown) [compound 35] . Reported CC50?
9.35
